Molecular target: T1, human β-Klotho extracellular domain (aa1–992) fused with a 6 × His tag at the C-terminus (human, UniProt Q86Z14 1-992, biotin (EZ-Link Sulfo-NHS-LC-Biotin) in the bio-layer interferometry)
T1 construct: signal peptide in the construct; human β-Klotho extracellular domain, aa1–992 of the full-length protein aa1-1044 (NM_175737); also called β-Klotho ECD 6 × His; soluble human β-Klotho; source: CHO-EBNA1, transiently transfected, conditioned medium; not shown: His6, C-terminal, kept
T1 sequence (looked up): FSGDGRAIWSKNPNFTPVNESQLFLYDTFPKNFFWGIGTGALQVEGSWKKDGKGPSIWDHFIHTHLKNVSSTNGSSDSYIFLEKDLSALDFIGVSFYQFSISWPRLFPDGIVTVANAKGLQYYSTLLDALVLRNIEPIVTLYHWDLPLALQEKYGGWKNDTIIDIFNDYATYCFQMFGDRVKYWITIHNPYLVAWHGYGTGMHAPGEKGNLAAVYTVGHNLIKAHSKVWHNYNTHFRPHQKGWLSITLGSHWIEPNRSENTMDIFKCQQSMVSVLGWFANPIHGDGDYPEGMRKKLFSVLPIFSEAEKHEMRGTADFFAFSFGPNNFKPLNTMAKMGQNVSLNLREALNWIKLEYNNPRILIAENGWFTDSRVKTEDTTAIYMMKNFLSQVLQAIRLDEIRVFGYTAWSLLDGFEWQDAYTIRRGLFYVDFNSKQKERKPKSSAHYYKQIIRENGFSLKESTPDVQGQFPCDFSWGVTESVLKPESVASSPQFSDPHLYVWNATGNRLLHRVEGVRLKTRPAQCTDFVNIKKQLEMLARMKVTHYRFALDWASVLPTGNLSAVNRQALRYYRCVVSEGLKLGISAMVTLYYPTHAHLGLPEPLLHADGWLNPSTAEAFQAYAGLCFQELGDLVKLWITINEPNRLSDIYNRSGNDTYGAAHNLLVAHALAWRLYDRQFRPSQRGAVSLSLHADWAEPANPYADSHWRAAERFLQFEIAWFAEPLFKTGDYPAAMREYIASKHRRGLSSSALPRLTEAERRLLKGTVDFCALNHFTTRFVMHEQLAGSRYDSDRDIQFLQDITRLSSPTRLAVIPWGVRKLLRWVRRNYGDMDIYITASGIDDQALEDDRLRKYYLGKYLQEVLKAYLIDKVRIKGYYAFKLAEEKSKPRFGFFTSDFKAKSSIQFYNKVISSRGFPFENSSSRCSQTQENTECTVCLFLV
Assay: ELISA; solid-phase binding assay: WT β-Klotho captured from CHO-EBNA1 conditioned media by plate-coated anti-β-Klotho antibody; purified Fc-FGF21 titrated, 1.5 h room temperature; detected with anti-human IgG Fc-HRP
Settings: one partner purified
READOUT_TYPE: fold increase in EC50 compared to WT

[[record]]
binder = "Fc-FGF21, 194L to arginine (Fc fusion, human, UniProt Q9NSA1 29-209, looked up, human FGF21, mature polypeptide (NM_019113); also called L194R; source: HEK293-EBNA1, transiently transfected, purified (protein A); not shown: Fc (human), N-terminal, kept) HPIPDSSPLLQFGGQVRQRYLYTDDAQQTEAHLEIREDGTVGGAADQSPESLLQLKALKPGVIQILGVKTSRFLCQRPDGALYGSLHFDPEACSFRELLLEDGYNVYQSEAHGLPLHLPGNKSPHRDPAPRGPARFLPLPGLPPALPEPPGILAPQPPDVGSSDPRSMVGPSQGRSPSYAS"
readout_type = "fold increase in EC50 compared to WT"
result = "> 100 fold"

[[record]]
binder = "Fc-FGF21, 194L to alanine (Fc fusion, human, UniProt Q9NSA1 29-209, looked up, human FGF21, mature polypeptide (NM_019113); also called L194A; source: HEK293-EBNA1, transiently transfected, purified (protein A); not shown: Fc (human), N-terminal, kept) HPIPDSSPLLQFGGQVRQRYLYTDDAQQTEAHLEIREDGTVGGAADQSPESLLQLKALKPGVIQILGVKTSRFLCQRPDGALYGSLHFDPEACSFRELLLEDGYNVYQSEAHGLPLHLPGNKSPHRDPAPRGPARFLPLPGLPPALPEPPGILAPQPPDVGSSDPASMVGPSQGRSPSYAS"
readout_type = "fold increase in EC50 compared to WT"
result = "> 100 fold"

